# Species on record: Rattus norvegicus
# Experiment notes: Open TG-GATES - Regimen: Daily Repeat
# Assay type: toxicity, organism-based, Sprague-Dawley
# Parameters: regimen Daily Repeat, gender Male, age 6 weeks
# Measurement conditions: in vivo, po, 0 mg/kg, […], tissue Kidney, route gavage, dose level Control, time 7 day
Assay endpoint: KIDNEY_TOTAL (g)
# value in g; strip the unit string

>  <Compound>
Cc1cccc(Nc2cc(Cl)nc(SCC(=O)O)n2)c1C

>  <KIDNEY_TOTAL (g)>
2.1

$$$$

Q) Determine from records and report KIDNEY_TOTAL for COc1ccc(Cl)cc1C(=O)NCCc1ccc(S(=O)(=O)NC(=O)NC2CCCCC2)cc1 [GLYBURIDE]
A) 2.3

Q) Determine from records and report KIDNEY_TOTAL for `O=C1NC(=O)C(c2ccccc2)(c2ccccc2)N1`
A) 2.1

Q) Determine from records and report KIDNEY_TOTAL for `Cc1cnc(NC(=O)C2=C(O)c3ccccc3S(=O)(=O)N2C)s1`
A) 2.3

Q) Determine from records and report KIDNEY_TOTAL for `O=C1CN(/N=C/c2ccc(-c3ccc([N+](=O)[O-])cc3)o2)C(O)=N1`
A) 2.4

Q) Determine from records and report KIDNEY_TOTAL for `Cn1cnc([N+](=O)[O-])c1Sc1ncnc2nc[nH]c12`
A) 2.1

Q) Determine from records and report KIDNEY_TOTAL for COc1ccc(O)c(C(C)(C)C)c1.COc1ccc(O)cc1C(C)(C)C [BUTYLATED HYDROXYANISOLE]
A) 2

Q) Determine from records and report KIDNEY_TOTAL for O=P1(N(CCCl)CCCl)NCCCO1 (stereo unspecified) [CYCLOPHOSPHAMIDE ANHYDROUS]
A) 2.2

Q) Determine from records and report KIDNEY_TOTAL for `C=CCO`
A) 2.2

Q) Determine from records and report KIDNEY_TOTAL for CS(=O)(=O)Nc1ccc([N+](=O)[O-])cc1Oc1ccccc1 [NIMESULIDE]
A) 2.2

Q) Determine from records and report KIDNEY_TOTAL for `Cn1c(=O)c2c(ncn2C)n(C)c1=O`
A) 2.3

# credit: ChEMBL document CHEMBL3885861
